ASSAY OVERVIEW: false positives in methylated H4 peptide AlphaScreen detection – biochemical, cherry-picked samples, artefact control for NSD2 inhibitor project, dose response (AID 1053174);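 note: actives lower the AlphaScreen signal from the preloaded product and count as artifacts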
Among all 1,500 compounds or so, about 140 (9.3%) were called active. Shown is part of a subset that was picked to be rich in actives.
OBSERVATION TYPE: AbsAC35

Exercise: Dear colleague, I am looking for the recorded AbsAC35 of the following molecule: `N/C(=N\N=C/c1ccc(-c2ccc(O)c(C(=O)O)c2)o1)N[N+](=O)[O-]`
Solution: 19.7 µM (active)

Exercise: Query `CCCCCCCSc1cc(OC)c(CCNC)cc1OC` next
Solution: 14.6 µM (active)

Exercise: Query `CN(c1ccc(O)cc1)c1ccc([N+](=O)[O-])c2nonc12` next
Solution: 15.7 µM (active)

Exercise: Query `CN(C)c1ccc(/C=C/c2cc[n+](C)c3ccccc23)cc1` next
Solution: 10.6 µM (active)

Exercise: Query `OCC[n+]1c2ccccc2nc2ccc(N3CCOCC3)cc21` next
Solution: 15.8 µM (active)
